ASSAY_SUMMARY: NCI Yeast Anticancer Drug Screen. Data for the mlh1 strain (AID 171);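 also: 0% = growth of vehicle-treated control cultures of the same strain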
ASSAY_SETUP: S. cerevisiae mlh1 strain growth inhibition; at 100.0 µM
Compounds without any hit were thinned out: in the full panel of roughly 79,000, 15% have a hit. The source made the active and inactive calls. Rule as the data show it: active = growth inhibition above about 70%; inactive = the rest.
Outcomes you can answer with include only these: 1.0 = active, 0.0 = inactive

Answered cases to consult:
COMPOUND: CN(C)CCSC1=Nc2ccc(Cl)cc2C(c2ccccc2Cl)=NC1
ASSIGNED_CLASS: 0.0

COMPOUND: COC(=O)C1c2cc3c(c(O)c2C(O)CC1(C)O)C(=O)c1c(O)cc2c(c1C3=O)OC1OC2(C)C(O)C(N(C)C)C1O (centres undefined)
ASSIGNED_CLASS: 1.0

COMPOUND: COc1cc(C2c3cc4c(cc3[C@@H](Nc3ccc(N)cc3)C3COC(=O)[C@H]23)OCO4)cc(OC)c1O (some centres undefined)
ASSIGNED_CLASS: 1.0

COMPOUND: CC1(C)N=C(N)N=C(N)N1c1cccc(N)c1.[Sn]
ASSIGNED_CLASS: 0.0

Please indicate how the test categorized Oc1ccc(Cl)cc1Cc1ccccc1 .
1.0

Please indicate how the test categorized S=C1NC2(CCCCC2)NC12CCCCC2 .
0.0

Please indicate how the test categorized O=C(O)C1C2CCC(C2)C1c1ccccc1 (centres undefined) .
0.0
